The origin of these recorded values is patent US20170101466A1.

Recorded kon for the following binders
Biological target: T1, soluble human BLyS (human, UniProt Q9Y275 134-285)
T1 construct: also called hBLyS; human BAFF (BLyS)
Assay: Biacore T100, binder captured by anti-human Fc, BLyS injected, 1:1 model
measurement_kind: kon (M⁻¹ s⁻¹)

binder	reported_measurement
belimumab (antibody, V domains shown) VH: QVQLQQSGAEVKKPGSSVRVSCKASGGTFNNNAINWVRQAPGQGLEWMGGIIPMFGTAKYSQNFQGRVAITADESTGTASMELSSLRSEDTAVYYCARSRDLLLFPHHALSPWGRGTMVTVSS VL: SSELTQDPAVSVALGQTVRVTCQGDSLRSYYASWYQQKPGQAPVLVIYGKNNRPSGIPDRFSGSSSGNTASLTITGAQAEDEADYYCSSRDSSGNHWVFGGGTELTVLG	506000
5B7 IgG1 F243A/V264A double mutein expressed in Pichia pastoris (antibody, V domains shown, IgG1 F243A/V264A (EU) double mutein, alpha-2,6-sialylated, from glycoengineered Pichia pastoris; also called 5B7-DM; 5B7-DM Pichia) VH: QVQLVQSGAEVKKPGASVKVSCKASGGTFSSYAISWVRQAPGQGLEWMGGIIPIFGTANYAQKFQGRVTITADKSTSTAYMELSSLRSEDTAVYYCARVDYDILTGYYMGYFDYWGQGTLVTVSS VL: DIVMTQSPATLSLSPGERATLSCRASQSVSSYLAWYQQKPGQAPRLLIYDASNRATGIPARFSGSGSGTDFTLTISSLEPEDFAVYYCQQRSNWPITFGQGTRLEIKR	678000
6C10 IgG1 F243A/V264A double mutein expressed in Pichia pastoris (antibody, V domains shown, IgG1 F243A/V264A (EU) double mutein, alpha-2,6-sialylated, from glycoengineered Pichia pastoris; also called 6C10-DM; 6C10-DM (Pichia)) VH: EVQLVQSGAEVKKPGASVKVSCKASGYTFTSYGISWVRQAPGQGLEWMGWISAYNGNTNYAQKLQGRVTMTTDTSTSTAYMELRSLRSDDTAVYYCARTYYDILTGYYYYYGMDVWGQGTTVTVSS VL: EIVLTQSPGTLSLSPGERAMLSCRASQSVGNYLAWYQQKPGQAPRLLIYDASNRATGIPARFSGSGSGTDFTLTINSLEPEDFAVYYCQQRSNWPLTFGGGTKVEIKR	368000
8D12 IgG1 F243A/V264A double mutein expressed in Pichia pastoris (antibody, V domains shown, IgG1 F243A/V264A (EU) double mutein, alpha-2,6-sialylated, from glycoengineered Pichia pastoris; also called 8D12-DM; 8D12-DM (Pichia)) VH: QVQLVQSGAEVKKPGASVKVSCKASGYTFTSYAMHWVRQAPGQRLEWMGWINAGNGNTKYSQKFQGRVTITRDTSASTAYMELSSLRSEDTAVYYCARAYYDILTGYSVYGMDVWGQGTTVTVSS VL: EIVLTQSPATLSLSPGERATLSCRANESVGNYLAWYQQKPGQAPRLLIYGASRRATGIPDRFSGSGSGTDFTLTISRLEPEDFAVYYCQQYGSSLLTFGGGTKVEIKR	1.11e+06
